Test: NCI Yeast Anticancer Drug Screen. Data for the rad50 strain (AID 155);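 further: 0% = growth of vehicle-only cultures of the same strain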
Settings: S. cerevisiae rad50 strain growth inhibition; at 50.0 µM; stronger effect = higher value
Method: Growth inhibition of yeast strains with defined genetic alterations is measured as a screen for potential anti-cancer activity. Selected strains with alterations in DNA damage repair or cell cycle control were exposed to compounds and growth inhibition was measured relative to vehicle treated controls. The strain used in this assay is rad50
This is part of a sample that, as a whole, favours compounds with a hit. Of some 79,000 tested, about 15% had one in any assay. The source made the active and inactive calls. No stated cut-off is given here; in the data, active means growth inhibition above about 70%; inactive means the rest.
Property label: growth inhibition

Observe how each entry below is paired with its result.
CC1(C)C2=CC[C@H]3[C@@H]4CC[C@H](O)[C@@]4(C)CC[C@@H]3[C@@]2(C)CC[C@@H]1O; -2.6% (inactive)
C[C@]12CCC(=O)C=C1CC[C@H]1[C@@H]3CCC(=O)[C@@]3(C)CC[C@@]12F; -2.35% (inactive)
OCC[N+]12CN3CN(CN(C3)C1)C2; 21.9% (inactive)
O=C1C(=O)C(Br)(Br)C(Br)=C1Br; 88.5% (active)
CCOP(=O)(N=Nc1cccnc1)OCC; 14% (inactive)
O=C1NC(=O)C(=O)C(=O)N1; -16.2% (inactive)

Shifting focus to the molecule that follows.
Looking up Sc1ccccc1.[Ag] , I see its growth inhibition listed as 98.5% (active)

====

What growth inhibition was measured for each of the following?
Experiment: NCI Yeast Anticancer Drug Screen. Data for the bub3 strain (AID 167)
Conditions: S. cerevisiae bub3 mutant strain, at 50.0 µM, stronger effect = higher value
This is part of a sample that, as a whole, favours compounds with a hit. Of some 79,000 tested, about 15% had one in any assay.
Numbers only, in %.

Observe how each entry below is paired with its result.
c1ccc(N2CCNCC2)nc1; 8.25
CCCCCCCCCC[C@@H](O)[C@@H]1CC[C@@H]([C@@H]2CC[C@@H]([C@@H](O)CCCCCCCCCC[C@H](O)CC3=CC(C)OC3=O)O2)O1 (stereo not given in full); -11.7

I have 3 molecules here; please give me growth inhibition for each one.
1. C[CH2][Sn]1([CH2]C)[O]S(=O)(=O)[O]1
2. CC1=NN(c2cccc(S(=O)(=O)O)c2)C(=O)C1N=Nc1cc(Cl)cc(S(=O)(=O)O)c1O.O.[Cr] (stereo not given)
3. NCCNCCNCCNCCN (tested in a mixture with another compound)

Output:
1: 45.1; 2: 8.35; 3: 80

====

Experiment: NCI Yeast Anticancer Drug Screen. Data for the mec2-1 strain (AID 157)
Settings: S. cerevisiae mec2-1 strain, at 50.0 µM, stronger effect = higher value
The panel holds about 79,000 compounds, 15% with a hit somewhere; the sample as a whole holds those more often.
What growth inhibition was measured for each of the following?
Answers are plain numbers, in %.

Observe how each entry below is paired with its result.
CCC(C)Sc1ccccc1OC(=O)NC (stereo not given); 7.05
CCCCCCCC[As](=O)(O)CCCCCCCC; -0.3
CC(C)[C@](O)(C(=O)OCC1=CC[N+]2([O-])CC[C@@H](O)[C@@H]12)[C@H](C)O (stereo not given in full); -46.3
[C-]#[O+].[Cl][Sn]([Cl])[Cl].[Cl][Sn]([Cl])[Cl].[Pt].c1ccncc1; 54.8

Shifting focus to the compound that follows.
Looking up C[CH2][Sn]1([CH2]C)[O]C(=O)[O][Sn]([CH2]C)([CH2]C)[O]1 , I see its growth inhibition listed as 0.95
